assay: Beagle dog PK study 1 of Example 101 (propylene glycol-based formulation, IV and PO), with clinical observations; type: in vivo; conditions: beagle, dog, plasma, iv, 1 mg/kg, dog PK study 1, IV, 24 h, Test Animal 3; read-out: Plasma concentration

# compound, concentration at 24 h
records = [
    ("CNC(=O)c1[nH]c(C(=O)NC2CCC2)cc1O[C@@H](C)c1ccccc1 (stereo in doubt)", "0 ng/mL"),
]

---

test: Beagle dog PK study 2 of Example 101 (HPβCD based formulation, IV), with clinical observations; assay type: in vivo; conditions: beagle, dog, plasma, iv, 1 mg/kg, dog PK study 2, IV 1 mg/kg, HPβCD, 8 h, mean; read-out: Average plasma concentration, Mean

# molecule, concentration at 8 h (ng/mL)
rows = [
    ("CNC(=O)c1[nH]c(C(=O)NC2CCC2)cc1O[C@@H](C)c1ccccc1 (stereo in doubt)", 3.03),
]
